Values were extracted from the supplement of paper PMC6555819.

- System: LXRb:RXRa (NR concentration 270 nM, RXRa partner concentration 90 nM)
- assayDetails: PBM binding z-score (relative to random genomic background probes); higher = stronger binding; sequences stand for … in GC…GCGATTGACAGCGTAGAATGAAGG
assayReadout: PBM binding z-score
No unit in the answer, please; the number alone is enough.

1. TCGAGTGGGTTAGTCGGGGCATTCAGCCAACATA | 0.985

### Prompt Name the reported PBM binding z-score value associated with the sequence `AGAATGAGGTTATACGGAGATCAGGGAAGAAAGT`
### Response 1.7

### Prompt Name the reported PBM binding z-score value associated with the sequence `CATACAGGGTCACCTAGGCCAGAGTAGGGACGGC`
### Response 3.35

###

- Tested on: PXR homodimer (NR concentration 270 nM)
- assayDetails: PBM binding z-score (relative to random genomic background probes); higher = stronger binding; sequences stand for … in GC…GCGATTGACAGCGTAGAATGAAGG
Definition: the class of an entry is the range in low (below -0.3), mid (-0.3 to below 0.8), high (0.8 or more) that contains its PBM binding z-score.

1) CCTACTGGGCCATTCAGAGGTCATTAATCATATG | high
2) CCAGACAGGTGCGAAGGTAACTCAGCCTCGATTA | low
3) GCAGACAGGTGAAACGCAGGAAACTCAGGGTGGC | low
4) TAGCCTTGGTCATTGGGCCAGTATAGTACGCATC | low
5) CCTAGCAGGCCAATCTGGGTCGCTCAAGGCTTGA | low
6) ATCTGTAGGTTACATCCGGGTCATTCAGGCTATG | high
7) AGAATGAGGTTAATAAGATCAGGGAATTGCGGTC | mid
8) AGCTCTAGGTAACAAGTTCAGTGAAAGAGAGGAC | high
9) CGAACTTGGTCAAGGACAGTGAATCTCCGCACGC | low
10) GCTGCTAGGTCAACGGATGGTCAGCTAAAGCTCG | low

### Prompt Class? Entry: `TCATATAGGTAAACGTGAAAGTCGAACGATATGA`
### Response mid

### Prompt Class? Entry: `CCTTACGGGTCACTACAGGTTATAGCATCGGAGT`
### Response mid

### Prompt Class? Entry: `CGTCCAAGGTCAGACAGGTCAGTGAATGCCGAGT`
### Response high

### Prompt Class? Entry: `GCTGCTAGGTCAGGTTGGTCAGATAACGGGTACG`
### Response mid

### Prompt Class? Entry: `ATCTTTAGGTAAAGTTCAGTGAAAGATCGATAGA`
### Response high

### Prompt Class? Entry: `CGAACTAGGTCATTGACAGGACACTGAATAGTAA`
### Response mid

### Prompt Class? Entry: `ACAGACAGGTGATGAAGGTAACTCGGGCTATCAT`
### Response mid

###

- Test system: PPARg:RXRa 90nM:30nM, anti-RXR (NR concentration 90 nM, RXRa partner concentration 30 nM)
- assayDetails: PBM binding z-score (relative to random genomic background probes); higher = stronger binding; sequences stand for … in GC…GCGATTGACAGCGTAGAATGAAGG
Below: a set of entries, each annotated with reported PBM binding z-score.
No unit in the answer, please; the number alone is enough.

Before answering, review these 4 worked examples.
1. CCTTACGTGTCAAGGTTATAGCACGGGTGGTACG | 0.364
2. CATACAGGGTCAGCTAGGCTAGAGTAGGGACGGC | 2.03
3. GCTCGTTGGTCAGTAAAAGGTCACACACCGGTCG | 4.52
4. TATACAGGGTCAACGGCCAGAGTACGAATGTCGA | 5.19

### Prompt Name the reported PBM binding z-score value associated with the sequence `CGTCCAAGGTCAATGCTCGGTCAGTGAAAGCATT`
### Response 2.79

### Prompt Name the reported PBM binding z-score value associated with the sequence `CCTACTGGGCCATCAGGTCATGGATATCAACGTT`
### Response 3.37
